Each entry below carries its recorded melting point.

CCOC(=O)C1=C(C)N=c2s/c(=C\c3ccccc3O)c(=O)n2C1c1ccc(Br)cc1 (centres unmarked) = 201 to 203 °C
CCOC(=O)C1=C(C)N=c2s/c(=C\c3ccccc3O)c(=O)n2C1c1cccc([N+](=O)[O-])c1 (centres unmarked) = 187 to 189 °C
CCOC(=O)C1=C(C)N=c2s/c(=C\c3ccc(O)cc3)c(=O)n2C1c1cccc([N+](=O)[O-])c1 (centres unmarked) = 190 to 192 °C
CCOC(=O)C1=C(C)N=c2s/c(=C\c3ccc(O)cc3)c(=O)n2C1c1ccc(Br)cc1 (centres unmarked) = 207 to 209 °C

Noted for COc1ccccc1C1C(C(=O)c2ccccc2)=C(C)N=c2s/c(=C\c3ccccc3O)c(=O)n21 (centres unmarked) : its melting point reads 167 to 169 °C

====

Each entry below carries its recorded pIC50.
System: PC3 prostate adenocarcinoma cell line
Assay: MTT cytotoxicity test, PC3
Format: cell-based
Settings: mean ± SD, triplicate, lead compounds, read-out: IC50 PC3 (Table 2)
Entry type: numeric. Quantity: pIC50, the -log10 of concentration in molar units.

CCOC(=O)C1=C(C)N=c2s/c(=C\c3ccccc3O)c(=O)n2C1c1ccccc1 (stereo not shown) = 4.11

Noted for CCOC(=O)C1=C(C)N=c2s/c(=C\c3ccccc3O)c(=O)n2C1c1cccc([N+](=O)[O-])c1 (stereo not shown) : its pIC50 reads 4.25

Noted for CCOC(=O)C1=C(C)N=c2s/c(=C\c3ccccc3O)c(=O)n2C1c1ccc(Br)cc1 (stereo not shown) : its pIC50 reads 4.55

Noted for CNC(=O)c1cc(Oc2ccc(NC(=O)Nc3ccc(Cl)c(C(F)(F)F)c3)cc2)ccn1 [Sorafenib, reference compound] : its pIC50 reads 4.56

====

System: HuTu 80 human duodenal adenocarcinoma
Assay: MTT cytotoxicity test, HuTu 80
Type: cell-based
Conditions: Homo sapiens, HuTu80, 48 h, mean ± SD, triplicate, read-out: IC50 HuTu 80
Each entry below carries its recorded pIC50.
Entry type: numeric. Quantity: pIC50, the -log10 of concentration in molar units.

Would you please look over these solved cases?
CCOC(=O)C1=C(C)N=c2s/c(=C\c3ccc(O)cc3)c(=O)n2C1c1ccccc1 (stereo not shown) = 4.36
CNC(=O)c1cc(Oc2ccc(NC(=O)Nc3ccc(Cl)c(C(F)(F)F)c3)cc2)ccn1 [Sorafenib, reference compound] = 4.89
CCOC(=O)C1=C(C)N=c2s/c(=C\c3ccccc3O)c(=O)n2C1c1cccc([N+](=O)[O-])c1 (stereo not shown) = 4.22

Here is the next item to consider.
Noted for CCOC(=O)C1=C(C)N=c2s/c(=C\c3ccc(O)cc3)c(=O)n2C1c1ccc(Br)cc1 (stereo not shown) : its pIC50 reads 4.49

====

System: HuTu 80 human duodenal adenocarcinoma
Test: MTT cytotoxicity test, HuTu 80
Assay type: cell-based
Settings: Homo sapiens, HuTu80, 48 h, mean ± SD, triplicate, read-out: IC50 HuTu 80
property: pIC50
Entry type: numeric. Quantity: pIC50, the -log10 of concentration in molar units.

COc1ccccc1C1C(C(=O)c2ccccc2)=C(C)N=c2s/c(=C\c3ccccc3O)c(=O)n21 (stereo not shown) = 4.41
CCOC(=O)C1=C(C)N=c2s/c(=C\c3ccccc3O)c(=O)n2C1c1ccc(Br)cc1 (stereo not shown) = 4.63
CCOC(=O)C1=C(C)N=c2s/c(=C\c3ccccc3O)c(=O)n2C1c1ccccc1 (stereo not shown) = 4.99

Noted for CCOC(=O)C1=C(C)N=c2s/c(=C\c3ccc(O)cc3)c(=O)n2C1c1cccc([N+](=O)[O-])c1 (stereo not shown) : its pIC50 reads 4.13

====

Each entry below carries its recorded IC50 at 48 h.
Experiment: MTT cytotoxicity test, normal Chang liver cells
Conditions: human
// note: answer is a bare numeric in µM

CCOC(=O)C1=C(C)N=c2s/c(=C\c3ccccc3O)c(=O)n2C1c1ccc(Br)cc1 (stereo not shown) = 78.2
CNC(=O)c1cc(Oc2ccc(NC(=O)Nc3ccc(Cl)c(C(F)(F)F)c3)cc2)ccn1 [Sorafenib, reference compound] = 21.7
CCOC(=O)C1=C(C)N=c2s/c(=C\c3ccccc3O)c(=O)n2C1c1ccccc1 (stereo not shown) = 75

Noted for CCOC(=O)C1=C(C)N=c2s/c(=C\c3ccccc3O)c(=O)n2C1c1cccc([N+](=O)[O-])c1 (stereo not shown) : its IC50 at 48 h reads 88

====

Tested on: MCF-7 (human mammary duct adenocarcinoma cell line)
Assay: MTT cytotoxicity test, MCF-7
Type: cell-based
Conditions: Homo sapiens, MCF7, 48 h, mean ± SD, triplicate, read-out: IC50 MCF-7
Each entry below carries its recorded pIC50.
Entry type: numeric. Quantity: pIC50, the -log10 of concentration in molar units.

CCOC(=O)C1=C(C)N=c2s/c(=C\c3ccccc3O)c(=O)n2C1c1cccc([N+](=O)[O-])c1 (centres unmarked) = 4.25
CCOC(=O)C1=C(C)N=c2s/c(=C\c3ccc(O)cc3)c(=O)n2C1c1ccc(Br)cc1 (centres unmarked) = 4.27
COc1ccccc1C1C(C(=O)c2ccccc2)=C(C)N=c2s/c(=C\c3ccccc3O)c(=O)n21 (centres unmarked) = 4.09
CCOC(=O)C1=C(C)N=c2s/c(=C\c3ccccc3O)c(=O)n2C1c1ccc(Br)cc1 (centres unmarked) = 4.65
CNC(=O)c1cc(Oc2ccc(NC(=O)Nc3ccc(Cl)c(C(F)(F)F)c3)cc2)ccn1 [Sorafenib, reference compound] = 4.56

Here is the next item to consider.
Noted for CCOC(=O)C1=C(C)N=c2s/c(=C\c3ccccc3O)c(=O)n2C1c1ccccc1 (centres unmarked) : its pIC50 reads 4.36

====

Tested on: Chang liver (HeLa derivative) human liver cells
Assay: MTT cytotoxicity test, normal Chang liver cells
Settings: Homo sapiens, HeLa, 48 h, read-out: IC50 Chang Liver (HeLa), normal cell line
property: pIC50
Entry type: numeric. Quantity: pIC50, the -log10 of concentration in molar units.

Would you please look over these solved cases?
CCOC(=O)C1=C(C)N=c2s/c(=C\c3ccc(O)cc3)c(=O)n2C1c1ccccc1 (stereo not shown) [Compound 13] = 4.06
CCOC(=O)C1=C(C)N=c2s/c(=C\c3ccc(O)cc3)c(=O)n2C1c1ccc(Br)cc1 (stereo not shown) [Compound 14] = 4.27
CNC(=O)c1cc(Oc2ccc(NC(=O)Nc3ccc(Cl)c(C(F)(F)F)c3)cc2)ccn1 [Sorafenib, reference compound] = 4.66

Here is the next item to consider.
Noted for COc1ccccc1C1C(C(=O)c2ccccc2)=C(C)N=c2s/c(=C\c3ccccc3O)c(=O)n21 (stereo not shown) [Compound 11] : its pIC50 reads 4.19

====

System: M-HeLa clone 11 (epithelioid carcinoma of the cervix, subline HeLa, clone M-HeLa)
Assay: MTT cytotoxicity test, M-HeLa
Type: cell-based
Settings: Homo sapiens, M-HeLa, mean ± SD, triplicate, lead compounds, read-out: IC50 M-HeLa (Table 2)
Each entry below carries its recorded IC50.
// note: answer is a bare numeric in µM

CNC(=O)c1cc(Oc2ccc(NC(=O)Nc3ccc(Cl)c(C(F)(F)F)c3)cc2)ccn1 [Sorafenib, reference compound] = 25
CCOC(=O)C1=C(C)N=c2s/c(=C\c3ccccc3O)c(=O)n2C1c1cccc([N+](=O)[O-])c1 (stereo not shown) = 55
CCOC(=O)C1=C(C)N=c2s/c(=C\c3ccccc3O)c(=O)n2C1c1ccccc1 (stereo not shown) = 11.9

Noted for CCOC(=O)C1=C(C)N=c2s/c(=C\c3ccccc3O)c(=O)n2C1c1ccc(Br)cc1 (stereo not shown) : its IC50 reads 18.8

====

Each entry below carries its recorded IC50.
Tested on: Chang liver (HeLa derivative) human liver cells
Test: MTT cytotoxicity test, normal Chang liver cells
Settings: Homo sapiens, HeLa, 48 h, read-out: IC50 Chang Liver (HeLa), normal cell line

CCOC(=O)C1=C(C)N=c2s/c(=C\c3ccccc3O)c(=O)n2C1c1ccccc1 (stereo not shown) = 75 µM
CCOC(=O)C1=C(C)N=c2s/c(=C\c3ccc(O)cc3)c(=O)n2C1c1cccc([N+](=O)[O-])c1 (stereo not shown) = 91.4 µM
CCOC(=O)C1=C(C)N=c2s/c(=C\c3ccccc3O)c(=O)n2C1c1ccc(Br)cc1 (stereo not shown) = 78.2 µM

Noted for CCOC(=O)C1=C(C)N=c2s/c(=C\c3ccccc3O)c(=O)n2C1c1cccc([N+](=O)[O-])c1 (stereo not shown) : its IC50 reads 88 µM

====

System: HuTu 80 human duodenal adenocarcinoma
Test: MTT cytotoxicity test, HuTu 80
Type: cell-based
Conditions: Homo sapiens, HuTu80, mean ± SD, triplicate, lead compounds, read-out: IC50 HuTu 80 (Table 2)
property: IC50 (µM)
// note: answer is a bare numeric in µM

CNC(=O)c1cc(Oc2ccc(NC(=O)Nc3ccc(Cl)c(C(F)(F)F)c3)cc2)ccn1 [Sorafenib, reference compound] = 13
CCOC(=O)C1=C(C)N=c2s/c(=C\c3ccccc3O)c(=O)n2C1c1cccc([N+](=O)[O-])c1 (stereo not shown) = 14.6
CCOC(=O)C1=C(C)N=c2s/c(=C\c3ccccc3O)c(=O)n2C1c1ccccc1 (stereo not shown) = 10

Here is the next item to consider.
Record CCOC(=O)C1=C(C)N=c2s/c(=C\c3ccccc3O)c(=O)n2C1c1ccc(Br)cc1 (stereo not shown) ; system HuTu 80 human duodenal adenocarcinoma; IC50 = 23.7
